# IC50 per record follows
Target: Recombinant human DDR1 (Homo sapiens (Human), UniProt Q08345)
Sequence (Q08345 other isoform, or with tags, fused parts or gaps): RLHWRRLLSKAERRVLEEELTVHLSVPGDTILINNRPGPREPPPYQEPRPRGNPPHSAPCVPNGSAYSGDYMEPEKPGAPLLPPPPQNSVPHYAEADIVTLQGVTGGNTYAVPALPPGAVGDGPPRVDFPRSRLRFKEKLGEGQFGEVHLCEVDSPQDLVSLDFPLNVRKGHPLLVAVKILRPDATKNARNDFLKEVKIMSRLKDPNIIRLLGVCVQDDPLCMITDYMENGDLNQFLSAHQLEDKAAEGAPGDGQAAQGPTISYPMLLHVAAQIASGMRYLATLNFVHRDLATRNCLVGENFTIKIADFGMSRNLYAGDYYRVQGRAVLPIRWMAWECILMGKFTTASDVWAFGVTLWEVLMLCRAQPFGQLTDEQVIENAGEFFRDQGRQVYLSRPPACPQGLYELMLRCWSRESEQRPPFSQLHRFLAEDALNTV
Assay: LanthaScreen Eu Kinase Binding Assay, DDR1
Settings: DDR1 2.5 nM (aa440-876, GST tag), Kinase Tracer 178 5 nM; read-out: DDR1 pIC50 (converted)
reported endpoint: IC50

{"columns": ["smiles representation", "value reported"],
 "data": [
  ["Cc1n[nH]c2nc(Nc3cccc4c3C(=O)N(CC(=O)NCC(F)(F)F)C4)ccc12", "100 to 1000 nM"],
  ["Cn1ncc2cc(Nc3cccc4c3C(=O)N(CC(=O)N3CCOC[C@H]3C(F)(F)F)C4)ccc21", "10 to 100 nM"],
  ["CN(c1ccc2c(cnn2C)c1)c1cccc2c1C(=O)N(CC(=O)N1CCC[C@H]1C(F)F)C2", "10 to 100 nM"],
  ["Cc1n[nH]c2cc(Nc3cccc4c3C(=O)N(CC(=O)N3CCOC[C@@H]3C(F)(F)F)C4)cnc12", "10 to 100 nM"],
  ["C[C@H](N(C)C(=O)CN1Cc2cccc(Nc3cnc4[nH]ncc4c3)c2C1=O)C(F)(F)F", "10 to 100 nM"],
  ["CN(c1cnc2[nH]ncc2c1)c1cccc2c1C(=O)N(CC(=O)N1CCC[C@H]1C(F)(F)F)C2", "10 to 100 nM"],
  ["CC(C)c1n[nH]c2cc(Nc3cccc4c3C(=O)N(CC(=O)NCC(F)(F)F)C4)ccc12", "100 to 1000 nM"],
  ["Cc1n[nH]c2cc(Nc3cccc4c3C(=O)N(CC(=O)N3CCOC[C@H]3C(F)(F)F)C4)cnc12", "100 to 1000 nM"],
  ["Cn1ncc2cc(Nc3cccc4c3C(=O)N(CC(=O)N3CCC[C@H]3C(F)F)C4)ccc21", "< 10 nM"],
  ["O=C(CN1Cc2cccc(Nc3ccc4cn[nH]c4c3)c2C1=O)NCC(F)(F)F", "10 to 100 nM"],
  ["Cc1n[nH]c2cc(Nc3cccc4c3C(=O)N(CC(=O)N3CCC[C@H]3C(F)(F)F)C4)ccc12", "< 10 nM"],
  ["C[C@H](NC(=O)CN1Cc2cccc(Nc3cnc4[nH]ncc4c3)c2C1=O)C(F)(F)F", "< 10 nM"],
  ["Cn1ncc2cc(Nc3cccc4c3C(=O)N(CC(=O)N3CCO[C@@H](C(F)(F)F)C3)C4)cnc21", "100 to 1000 nM"],
  ["CN(c1ccc2[nH]nc(F)c2c1)c1cccc2c1C(=O)N(CC(=O)N1CCC[C@H]1C(F)(F)F)C2", "10 to 100 nM"],
  ["Cn1ncc2cc(Nc3cccc4c3C(=O)N(CC(=O)Nc3cncc(C(F)(F)F)c3)C4)cnc21", "10 to 100 nM"],
  ["Cc1n[nH]c2cc(Nc3cccc4c3C(=O)N(CC(=O)N3CCCC[C@H]3C(F)(F)F)C4)ccc12", "< 10 nM"],
  ["Cc1n[nH]c2cc(Nc3cccc4c3C(=O)N(CC(=O)Nc3cnoc3)C4)cc(F)c12", "100 to 1000 nM"],
  ["CN(c1ccc2[nH]nc(C#N)c2c1)c1cccc2c1C(=O)N(CC(=O)N1CCC[C@H]1C(F)(F)F)C2", "10 to 100 nM"],
  ["O=C1c2c(cccc2Nc2ccc3[nH]ncc3n2)CN1CC(=O)N1CCC[C@H]1C(F)(F)F", "10 to 100 nM"]
]}

The origin of these recorded values is patent US20260069571A1.
